experiment: Study 1A single-rising-dose pharmacokinetics; assay type: in vivo, human; settings: male, human, plasma, oral, 2.5 mg
Measured metric: Cmax (ng/mL)
One number for each entry, in ng/mL.

Query: Identify measured Cmax corresponding to Cc1ccc(Sc2ccccc2N2CCNCC2)c(C)c1
Response: 0.8

* * *

assay: Study 1A single-rising-dose pharmacokinetics; type: in vivo, human; details: male, human, plasma, oral, 20 mg
Measured metric: Tmax
# answer = value followed by unit

Query: Identify measured Tmax corresponding to Cc1ccc(Sc2ccccc2N2CCNCC2)c(C)c1
Response: 9 h

* * *

assay: Study 1A single-rising-dose pharmacokinetics; type: in vivo, human; conditions: male, human, plasma, oral, 40 mg
Measured metric: AUC(0-inf) (ng·h/mL)
Numbers only, in ng·h/mL.

Query: Identify measured AUC(0-inf) corresponding to Cc1ccc(Sc2ccccc2N2CCNCC2)c(C)c1
Response: 1310

* * *

test: Study 1A single-rising-dose pharmacokinetics; assay type: in vivo, human; conditions: male, human, plasma, oral
Measured metric: half-life

Query: Identify measured half-life corresponding to Cc1ccc(Sc2ccccc2N2CCNCC2)c(C)c1 [Vortioxetine]
Response: 50 to 70 h

* * *

assay: Study 1A single-rising-dose pharmacokinetics; type: in vivo, human; conditions: male, human, plasma, oral, 5 mg
Measured metric: AUC(0-inf) (ng·h/mL)
Numbers only, in ng·h/mL.

Query: Identify measured AUC(0-inf) corresponding to Cc1ccc(Sc2ccccc2N2CCNCC2)c(C)c1 [Vortioxetine]
Response: 188

* * *

test: Study 1A single-rising-dose pharmacokinetics; type: in vivo, human; settings: male, human, plasma, oral, 2.5 mg
Measured metric: Tmax (h)
Numbers only, in h.

Query: Identify measured Tmax corresponding to Cc1ccc(Sc2ccccc2N2CCNCC2)c(C)c1
Response: 10

* * *

assay: Study 1A single-rising-dose pharmacokinetics; type: in vivo, human; conditions: male, human, plasma, oral, 10 mg
Measured metric: AUC(0-inf) (ng·h/mL)
Give bare numbers, in ng·h/mL.

Query: Identify measured AUC(0-inf) corresponding to Cc1ccc(Sc2ccccc2N2CCNCC2)c(C)c1
Response: 348

* * *

experiment: Study 2 single-dose pharmacokinetics in elderly adults; assay type: in vivo, human; settings: male, human, plasma, oral, 10 mg
Measured metric: AUC(0-inf) (ng·h/mL)
Give bare numbers, in ng·h/mL.

Query: Identify measured AUC(0-inf) corresponding to Cc1ccc(Sc2ccccc2N2CCNCC2)c(C)c1
Response: 378

* * *

assay: Study 1A single-rising-dose pharmacokinetics; assay type: in vivo, human; settings: male, human, plasma, oral, 20 mg
Measured metric: AUC(0-inf) (µg·h/mL)
One number for each entry, in µg·h/mL.

Query: Identify measured AUC(0-inf) corresponding to Cc1ccc(Sc2ccccc2N2CCNCC2)c(C)c1
Response: 0.56

* * *

assay: Study 1A single-rising-dose pharmacokinetics; format: in vivo, human; details: male, human, plasma, oral, 10 mg
Measured metric: Cmax (ng/mL)
Answers are plain numbers, in ng/mL.

Query: Identify measured Cmax corresponding to Cc1ccc(Sc2ccccc2N2CCNCC2)c(C)c1 [Vortioxetine]
Response: 3.5

* * *

assay: Study 2 single-dose pharmacokinetics in elderly adults; type: in vivo, human; conditions: male, human, plasma, oral, 10 mg
Measured metric: Tmax (h)
Answers are plain numbers, in h.

Query: Identify measured Tmax corresponding to Cc1ccc(Sc2ccccc2N2CCNCC2)c(C)c1
Response: 6

* * *

assay: Study 1B multiple-dose pharmacokinetics; assay type: in vivo, human; details: male, human, plasma, oral, 10 mg, AUC0–24, day 1, male, 10 mg daily, fed, n = 6, mean (SD)
Measured metric: AUC(0-t) (ng·h/mL)
Answers are plain numbers, in ng·h/mL.

Query: Identify measured AUC(0-t) corresponding to Cc1ccc(Sc2ccccc2N2CCNCC2)c(C)c1
Response: 71

* * *

assay: Study 1B multiple-dose pharmacokinetics; assay type: in vivo, human; conditions: female, human, plasma, oral, 5 mg, AUC0–24, day 12, female, 5 mg daily, fed, n = 5, mean (SD)
Measured metric: AUC(0-t) (ng·h/mL)
Give bare numbers, in ng·h/mL.

Query: Identify measured AUC(0-t) corresponding to Cc1ccc(Sc2ccccc2N2CCNCC2)c(C)c1
Response: 284

* * *

test: Study 1A single-rising-dose pharmacokinetics; assay type: in vivo, human; details: male, human, plasma, oral, 20 mg
Measured metric: Cmax (ng/mL)
Give bare numbers, in ng/mL.

Query: Identify measured Cmax corresponding to Cc1ccc(Sc2ccccc2N2CCNCC2)c(C)c1
Response: 7.7

* * *

test: Study 1B multiple-dose pharmacokinetics; format: in vivo, human; settings: male, human, plasma, oral, 10 mg, T1/2, day 12, male, 10 mg daily, fed, n = 6, mean (SD)
Measured metric: half-life (h)
One number for each entry, in h.

Query: Identify measured half-life corresponding to Cc1ccc(Sc2ccccc2N2CCNCC2)c(C)c1
Response: 65.1

* * *

test: Study 2 single-dose pharmacokinetics in elderly adults; format: in vivo, human; details: female, human, plasma, oral, 10 mg
Measured metric: Tmax (h)
Give bare numbers, in h.

Query: Identify measured Tmax corresponding to Cc1ccc(Sc2ccccc2N2CCNCC2)c(C)c1
Response: 6

* * *

experiment: Study 3 food-effect pharmacokinetics; assay type: in vivo, human; conditions: male, human, plasma, oral, 10 mg
Measured metric: Tmax

Query: Identify measured Tmax corresponding to Cc1ccc(Sc2ccccc2N2CCNCC2)c(C)c1
Response: 12 h

* * *

assay: Study 1A single-rising-dose pharmacokinetics; format: in vivo, human; settings: male, human, plasma, oral, 5 mg
Measured metric: half-life (h)
One number for each entry, in h.

Query: Identify measured half-life corresponding to Cc1ccc(Sc2ccccc2N2CCNCC2)c(C)c1
Response: 69.4
